- Test system: rodent lifetime carcinogenesis bioassay, tumor incidence TD50
- Test Summary: carcinogenic potency in animals, long-term in vivo studies, CPDB compilation (AID 1745844)
- Experimental Conditions: mouse; strain Crj:BDF1; males; inhaled; site: liver; lesion: hepatocellular carcinoma; dosed 104 weeks; study length 104 weeks
Quantity Name: TD50

Prompt line: Please report the measured TD50 for ClC(Cl)=C(Cl)Cl
Response line: 555 mg/kg/day

----------
- Tested on: rodent lifetime carcinogenesis bioassay, tumor incidence TD50
- Test Summary: carcinogenic potency in animals, long-term in vivo studies, CPDB compilation (AID 1745844)
- Experimental Conditions: mouse; strain CD-1 HaM/ICR; males; in feed; site: liver; lesion: several types; types named in the paper; dosed 73 weeks; study length 94 weeks
The source made the active and inactive calls. The rule behind the calls is not given here.
Quantity Name: TD50

Prompt line: Report TD50 for Nc1nc(N)nc(-c2ccccc2)n1
Response line: 3200 mg/kg/day (inactive)
